FYI, the data here is from patent USRE48461E1.

test system: AR mRNA; assay: Dose-dependent antisense inhibition of human AR in HuVEC cells (electroporation, qRT-PCR RTS3559, IC50); type: cell-based; settings: Table 34; 46.9 nM, HuVEC, electroporation, approximately 16 hours
Oligonucleotides are written 5' to 3', each unit as a sugar letter and its base; * is a phosphorothioate linkage, no mark a phosphodiester; rarer units and linkages stand in square brackets, end groups in braces. Plain capitals give the bases only. k = constrained ethyl (cEt); [5mC] = 5-methylcytosine; d = 2'-deoxy (DNA)

# SUBSTANCE, percent inhibition of AR, 46.9 nM
rows = [
    ("583990 (kA*k[5mC]*kA*d[5mC]*dA*dT*d[5mC]*dA*dG*dG*dT*dG*d[5mC]*kG*kG*kT; antisense) [compound 583990]", "0%"),
    ("583999 (kA*k[5mC]*k[5mC]*dA*dT*dG*d[5mC]*d[5mC]*dG*d[5mC]*d[5mC]*dA*dG*kG*kG*kT; antisense) [compound 583999]", "13%"),
    ("549458 (kG*kT*kT*dG*dA*dT*dT*dT*dA*dA*dT*dG*dG*kT*kT*kG) [compound 549458]", "14%"),
    ("584128 (kA*kT*kT*d[5mC]*dT*dT*dG*dA*d[5mC]*dT*dG*dT*d[5mC]*kT*kG*kA; antisense) [compound 584128]", "20%"),
    ("583998 (k[5mC]*kA*kT*dG*d[5mC]*d[5mC]*dG*d[5mC]*d[5mC]*dA*dG*dG*dG*kT*kA*k[5mC]; antisense) [compound 583998]", "4%"),
    ("584069 (k[5mC]*kA*kG*dA*dG*dT*d[5mC]*dA*dT*d[5mC]*d[5mC]*d[5mC]*dT*kG*k[5mC]*kT; antisense) [compound 584069]", "18%"),
    ("584139 (kT*k[5mC]*kT*dA*dA*dA*d[5mC]*dA*dT*dG*dA*d[5mC]*dG*kG*kT*kT; antisense) [compound 584139]", "13%"),
    ("583996 (k[5mC]*kG*k[5mC]*d[5mC]*dA*dG*dG*dG*dT*dA*d[5mC]*d[5mC]*dA*k[5mC]*kA*k[5mC]; antisense) [compound 583996]", "26%"),
    ("549372 (kA*kA*kG*dT*dT*dG*dT*dA*dG*dT*dA*dG*dT*k[5mC]*kG*k[5mC]) [compound 549372]", "14%"),
    ("583922 (kA*kG*kT*dT*dG*dT*dA*dG*dT*dA*dG*dT*d[5mC]*kG*k[5mC]*kG; antisense) [compound 583922]", "16%"),
    ("583917 (kT*k[5mC]*kG*d[5mC]*dG*dA*d[5mC]*dT*d[5mC]*dT*dG*dG*dT*kA*k[5mC]*kG; antisense) [compound 583917]", "6%"),
    ("583932 (kT*k[5mC]*kT*d[5mC]*d[5mC]*dA*dG*d[5mC]*dT*dT*dG*dA*dT*kG*k[5mC]*kG; antisense) [compound 583932]", "9%"),
    ("584125 (kG*k[5mC]*k[5mC]*dA*dT*dG*dA*dG*dA*d[5mC]*dA*dG*d[5mC]*kT*kT*kT; antisense) [compound 584125]", "12%"),
    ("584044 (k[5mC]*k[5mC]*k[5mC]*dT*dT*d[5mC]*dA*dG*d[5mC]*dG*dG*d[5mC]*dT*k[5mC]*kT*kT; antisense) [compound 584044]", "23%"),
]
